Reference source for all entries: patent US11339151B2

molecular target: human 5-HT7 receptor (Homo sapiens (Human))
Sequence (P34969 whole entry): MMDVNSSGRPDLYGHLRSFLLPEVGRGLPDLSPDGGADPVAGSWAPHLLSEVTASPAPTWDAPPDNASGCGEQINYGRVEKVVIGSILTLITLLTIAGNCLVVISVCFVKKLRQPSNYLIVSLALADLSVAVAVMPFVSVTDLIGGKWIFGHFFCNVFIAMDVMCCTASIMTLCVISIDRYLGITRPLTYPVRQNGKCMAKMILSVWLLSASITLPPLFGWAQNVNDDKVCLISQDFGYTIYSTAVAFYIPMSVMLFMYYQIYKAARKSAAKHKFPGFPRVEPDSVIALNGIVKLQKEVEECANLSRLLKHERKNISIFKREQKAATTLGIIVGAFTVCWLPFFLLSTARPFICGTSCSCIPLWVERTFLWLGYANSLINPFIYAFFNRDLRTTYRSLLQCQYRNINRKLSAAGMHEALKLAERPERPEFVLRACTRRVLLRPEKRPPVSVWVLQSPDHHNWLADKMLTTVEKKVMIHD
Could you please report measured Ki for the items listed next?

Example entries begin here.
CC(C)N(CCN1CCC(c2noc3cc(F)ccc23)CC1)C(=O)[C@@H](C)O :: 2.5 nM
CCN(CCN1CCC(c2noc3cc(F)ccc23)CC1)C(=O)[C@H]1NCC[C@H]1O :: 48.5 nM
CCN(CCCN1CCC(c2noc3cc(F)ccc23)CC1)S(=O)(=O)CCO :: 1.4 nM
CCN(CCN1CCC(c2noc3ccccc23)CC1)C(=O)C(C)O (stereo not drawn) :: 7.7 nM
CCN(CCN1CCC(c2c[nH]c3ccccc23)CC1)S(=O)(=O)CCO :: 8.7 nM
CCN(CCN1CCC(n2ccc3cc(F)ccc32)CC1)C(=O)C(C)O (stereo not drawn) :: 13.5 nM

Okay, here is my list. What is Ki for each of these?
1. CCN(CCN1CCC(c2c[nH]c3cc(F)ccc23)CC1)C(=O)[C@H](C)O
2. CCN(CCN1CCC(c2noc3cc(F)ccc23)CC1)C(=O)C(C)(C)O

Output line:
1.5 nM
5.7 nM

Okay, here is my list. What is Ki for each of these?
1. CCN(CCN1CCC(n2ncc3cc(F)ccc32)CC1)S(=O)(=O)CCO
2. CCN(CCN1CCC(c2noc3cc(F)ccc23)CC1)S(=O)(=O)C(C)CO (stereo not drawn)

Output line:
1: 6.9 nM; 2: 333 nM

Okay, here is my list. What is Ki for each of these?
1. CCN(CCN1CCC(c2noc3cc(F)ccc23)CC1)C(=O)C1CN(C(C)=O)CC1O (stereo not drawn)
2. CCN(CCN1CCC(c2noc3ccc(F)cc23)CC1)C(=O)[C@H](C)O
3. CCN(CCN1CCC(c2c[nH]c3ccccc23)CC1)C(=O)CCO
4. CCN(CCN1CCC(c2noc3cc(F)ccc23)CC1)C(=O)C(C)(C)CO
5. CCN(CCN1CCC(c2noc3cc(F)ccc23)CC1)C(=O)C(F)(F)CO
6. CCN(CCN1CCN(c2noc3cc(F)ccc23)CC1)C(=O)C(C)O (stereo not drawn)
7. CCN(CCCN1CCC(c2noc3ccccc23)CC1)S(=O)(=O)C(C)CO (stereo not drawn)

Output line:
["14.4 nM", "22.6 nM", "8.9 nM", "1 nM", "1 nM", "11.1 nM", "2.6 nM"]

Input line: Query (compound): CCN(CCN1CCC(c2c[nH]c3ccccc23)CC1)C(=O)[C@H](C)O ; field requested: Ki
Output line: 7.9 nM
